- Study target: mNPR1-mFc:hBNP complex (mouse; human) (UniProt P16860)
- Method: SPR Biacore, mAb captured by anti-human Fc, 25C
For each record, write down the corresponding 100 nM Ag Bound (RU).
Give bare numbers, in RU.

Consider the following items and state reported 100 nM Ag Bound (RU) for each.
1. mAb25502 (antibody, human IgG4, V domains shown) VH: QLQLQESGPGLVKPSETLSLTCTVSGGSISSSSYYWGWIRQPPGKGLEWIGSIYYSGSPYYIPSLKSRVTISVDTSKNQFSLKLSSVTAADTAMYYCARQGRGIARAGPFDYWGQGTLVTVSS VL: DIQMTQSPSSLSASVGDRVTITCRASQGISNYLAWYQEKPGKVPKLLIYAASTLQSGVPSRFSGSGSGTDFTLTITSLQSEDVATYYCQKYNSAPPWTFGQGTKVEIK
2. mAb22805 (antibody, human IgG4, V domains shown) VH: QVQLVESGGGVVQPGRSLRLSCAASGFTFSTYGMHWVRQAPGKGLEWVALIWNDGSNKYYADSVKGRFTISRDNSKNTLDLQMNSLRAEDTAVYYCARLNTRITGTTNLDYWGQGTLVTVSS VL: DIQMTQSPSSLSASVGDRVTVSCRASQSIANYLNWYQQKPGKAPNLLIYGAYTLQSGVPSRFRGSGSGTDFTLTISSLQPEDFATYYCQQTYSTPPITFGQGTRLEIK
3. mAb25497 (antibody, human IgG4, V domains shown) VH: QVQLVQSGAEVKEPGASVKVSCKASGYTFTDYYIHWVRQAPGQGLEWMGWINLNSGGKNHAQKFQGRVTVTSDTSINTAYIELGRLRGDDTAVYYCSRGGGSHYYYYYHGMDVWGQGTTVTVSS VL: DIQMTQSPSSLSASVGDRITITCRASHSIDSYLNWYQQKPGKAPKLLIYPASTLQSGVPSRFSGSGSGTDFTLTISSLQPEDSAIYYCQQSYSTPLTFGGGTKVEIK

1. 25
2. 21
3. 2
